- System Tested: BTK (Homo sapiens, UniProt Q06187)
- Sequence (Q06187 whole entry): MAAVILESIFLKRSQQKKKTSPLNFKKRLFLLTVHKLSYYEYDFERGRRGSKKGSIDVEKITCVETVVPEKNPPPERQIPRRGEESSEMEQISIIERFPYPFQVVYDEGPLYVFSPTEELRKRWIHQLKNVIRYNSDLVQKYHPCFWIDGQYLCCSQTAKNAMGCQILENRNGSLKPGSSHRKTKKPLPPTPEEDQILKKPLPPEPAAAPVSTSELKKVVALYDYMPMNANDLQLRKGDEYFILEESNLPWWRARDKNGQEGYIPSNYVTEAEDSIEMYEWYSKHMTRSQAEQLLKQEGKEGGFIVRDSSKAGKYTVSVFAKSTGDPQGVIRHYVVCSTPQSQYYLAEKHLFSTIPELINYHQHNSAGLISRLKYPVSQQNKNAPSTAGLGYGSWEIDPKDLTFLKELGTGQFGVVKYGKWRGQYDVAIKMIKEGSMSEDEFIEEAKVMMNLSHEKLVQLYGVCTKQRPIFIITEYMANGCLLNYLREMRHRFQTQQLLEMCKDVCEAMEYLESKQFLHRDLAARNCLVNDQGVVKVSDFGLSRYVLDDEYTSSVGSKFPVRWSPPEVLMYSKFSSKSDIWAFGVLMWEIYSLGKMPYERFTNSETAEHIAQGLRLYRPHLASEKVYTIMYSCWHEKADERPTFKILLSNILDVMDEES
- Assay Method Text: BTK degradation, DC50 and Dmax of Table 1 (cell line not given)
- Assay type: cell-based
- Design: endogenous in cells
Parameter: Dmax

A selection of reference data follows.
Nc1ncnc2c1c(-c1ccc(Oc3ccccc3)cc1)nn2[C@@H]1CCCN(C(=O)N2CCC(CCCC3CCN(c4ccc5c(c4)CN(C4CCC(=O)NC4=O)C5=O)CC3)CC2)C1 (stereo partly drawn) : > 75%
Nc1ncnc2c1c(-c1ccc(Oc3ccccc3)cc1)nn2[C@@H]1CCCN(C2CCN(C(=O)N3CCC(C4CCN(c5ccc6c(c5)CN(C5CCC(=O)NC5=O)C6=O)CC4)CC3)CC2)C1 (stereo partly drawn) : > 75%

Now consider a different molecule.
The measured Dmax associated with Nc1ncnc2c1c(-c1ccc(Oc3ccccc3)cc1)nn2C1CCN(C(=O)N2CCN(CCCN3CCN(c4ccc5c(c4)C(=O)N(C4CCC(=O)NC4=O)C5=O)CC3)CC2)CC1 (stereo not drawn) reads > 75%
